# EXPERIMENTAL_TARGET: Serine/threonine-protein kinase MARK1 (Homo sapiens);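 further: reported values are mean percent inhibition of MARK1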
# CONDITION_CONTEXT: at 1 µM
Please provide measured inhibition for the entries that follow.
Numbers only, in %.

Guide cases for inhibition, answers given:
STRUCTURE_SMILES_STRING: Cc1cc(-c2ccco2)cc(C)c1/C=C/c1cncc(-c2nn[nH]n2)c1
inhibition, %: 1.26

STRUCTURE_SMILES_STRING: NS(=O)(=O)c1ccc(-c2ccc3c(NC(=O)C4CC4)n[nH]c3c2)cc1
inhibition, %: 2.18

Could I get inhibition for every one of these entries?
1. COc1cc(C=NNc2ncnc3c2cnn3Cc2ccccc2)ccc1O
2. COc1cccc(-n2ncc3c(N/N=C/c4ccncc4)ncnc32)c1
3. Fc1ccc(-c2ncn(C3CCNCC3)c2-c2ccnc(Oc3ccccc3)n2)cc1
4. Nc1nonc1-c1nc2cnccc2n1C1CCCCC1
5. NS(=O)(=O)c1ccc(N/C=C2\C(=O)Nc3ccc4ncsc4c32)cc1
6. CCn1c(-c2nonc2N)nc2c(C#CC(C)(C)O)ncc(OC[C@@H]3CCCN3)c21

Result:
1: 1.36; 2: 9.17; 3: 0.99; 4: 16.5; 5: 53.8; 6: 61.1

Please supply inhibition for each of the following items, keeping them in order.
1. NC(=O)c1sc(-n2cnc3cc(C(F)(F)F)ccc32)cc1OCc1ccccc1Br
2. CCn1c(-c2nonc2N)nc2c(C#CC(C)(C)O)ncc(OCC3CCNCC3)c21

Result:
[1.6, 61.3]

---

# EXPERIMENTAL_TARGET: Inhibitor of nuclear factor kappa-B kinase subunit beta (Homo sapiens) (UniProt O14920);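 further: reported as mean inhibition, from the GSK PKIS screening set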
# Sequence (whole entry): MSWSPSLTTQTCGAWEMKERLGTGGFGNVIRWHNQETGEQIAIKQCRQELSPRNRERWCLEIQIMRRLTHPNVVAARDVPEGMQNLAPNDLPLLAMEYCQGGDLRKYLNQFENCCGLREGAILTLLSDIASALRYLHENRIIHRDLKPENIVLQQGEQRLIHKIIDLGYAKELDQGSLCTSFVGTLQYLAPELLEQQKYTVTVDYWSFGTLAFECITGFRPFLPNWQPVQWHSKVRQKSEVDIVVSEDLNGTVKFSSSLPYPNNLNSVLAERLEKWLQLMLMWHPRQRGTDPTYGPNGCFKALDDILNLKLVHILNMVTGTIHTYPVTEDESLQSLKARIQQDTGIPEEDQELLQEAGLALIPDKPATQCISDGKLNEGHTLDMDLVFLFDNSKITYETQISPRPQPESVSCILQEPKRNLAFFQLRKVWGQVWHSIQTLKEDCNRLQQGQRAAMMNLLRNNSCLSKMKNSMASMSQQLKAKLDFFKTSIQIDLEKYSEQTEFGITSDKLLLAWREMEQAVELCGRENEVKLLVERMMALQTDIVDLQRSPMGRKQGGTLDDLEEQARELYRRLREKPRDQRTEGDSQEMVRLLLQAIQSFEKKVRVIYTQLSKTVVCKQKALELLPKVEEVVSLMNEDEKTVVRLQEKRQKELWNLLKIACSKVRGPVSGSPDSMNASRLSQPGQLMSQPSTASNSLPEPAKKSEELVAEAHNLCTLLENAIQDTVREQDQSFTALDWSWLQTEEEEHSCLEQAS
# CONDITION_CONTEXT: at 1 µM
So I've got a bunch of compounds here, and I need their inhibition values.
Number first, unit second.

STRUCTURE_SMILES_STRING: NS(=O)(=O)c1ccc(-c2ccc3c(NC(=O)C4CC4)n[nH]c3c2)cc1
inhibition: 3.28%

STRUCTURE_SMILES_STRING: Fc1ccc(-c2ncn(C3CCNCC3)c2-c2ccnc(Oc3ccccc3)n2)cc1
inhibition: 3.12%

STRUCTURE_SMILES_STRING: Cc1cc(-c2ccco2)cc(C)c1/C=C/c1cncc(-c2nn[nH]n2)c1
inhibition: 2.75%

STRUCTURE_SMILES_STRING: COc1cc2c(cc1Nc1nc(Nc3ccsc3C(N)=O)c3cc[nH]c3n1)N(C(=O)CN(C)C)CCC2
inhibition: -1.2%

Now consider a different compound.
Query: Look up and report measured inhibition for this entry: "CCn1c(-c2nonc2N)nc2c(C#CCN)ncc(OCCCN)c21"
Result: 0.63%

---

# EXPERIMENTAL_TARGET: Interleukin-1 receptor-associated kinase 4 (Homo sapiens)
# CONDITION_CONTEXT: at 0.1 µM
PARAMETER_MEASURED: inhibition (%)
One number for each entry, in %.

STRUCTURE_SMILES_STRING: Cc1cc(-c2ccco2)cc(C)c1/C=C/c1cncc(-c2nn[nH]n2)c1
EXPERIMENTAL_TARGET: Interleukin-1 receptor-associated kinase 4 (Homo sapiens)
MEASURED_VALUE: -0.17
--
STRUCTURE_SMILES_STRING: Nc1nonc1-c1nc2cnccc2n1C1CCCCC1
EXPERIMENTAL_TARGET: Interleukin-1 receptor-associated kinase 4 (Homo sapiens)
MEASURED_VALUE: 2.08
--
STRUCTURE_SMILES_STRING: COc1cccc(COc2cc(-n3cnc4ccccc43)sc2C(N)=O)c1
EXPERIMENTAL_TARGET: Interleukin-1 receptor-associated kinase 4 (Homo sapiens)
MEASURED_VALUE: -1.12
--
STRUCTURE_SMILES_STRING: NC(=O)c1sc(-n2cnc3cc(C(F)(F)F)ccc32)cc1OCc1ccccc1Br
EXPERIMENTAL_TARGET: Interleukin-1 receptor-associated kinase 4 (Homo sapiens)
MEASURED_VALUE: 0.4
--
STRUCTURE_SMILES_STRING: CCn1c(-c2nonc2N)nc2c(C#CC(C)(C)O)ncc(OC[C@@H]3CCCN3)c21
EXPERIMENTAL_TARGET: Interleukin-1 receptor-associated kinase 4 (Homo sapiens);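 further: reported figure is the mean inhibition of IRAK4 activity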
MEASURED_VALUE: 0.18

// switching to the query molecule
Query: Output measured inhibition for this item: "COc1cc2c(cc1Nc1nc(Nc3ccsc3C(N)=O)c3cc[nH]c3n1)N(C(=O)CN(C)C)CCC2"
Result: -1.66

---

# EXPERIMENTAL_TARGET: High affinity nerve growth factor receptor (Homo sapiens);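 further: each value is a mean of replicate percent inhibition readings against TRKA kinase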
# CONDITION_CONTEXT: at 0.1 µM
Would you kindly list inhibition for each of these compounds?

These recorded examples may help you get a feel for the data.
STRUCTURE_SMILES_STRING: NS(=O)(=O)c1ccc(-c2ccc3c(NC(=O)C4CC4)n[nH]c3c2)cc1
inhibition: 3.82%
--
STRUCTURE_SMILES_STRING: COc1cccc(COc2cc(-n3cnc4ccccc43)sc2C(N)=O)c1
inhibition: -2.49%
--
STRUCTURE_SMILES_STRING: Fc1ccc(-c2ncn(C3CCNCC3)c2-c2ccnc(Oc3ccccc3)n2)cc1
inhibition: 1.92%
--
STRUCTURE_SMILES_STRING: CCn1c(-c2nonc2N)nc2c(C#CC(C)(C)O)ncc(OCC3CCNCC3)c21
inhibition: 3.1%
--
STRUCTURE_SMILES_STRING: COc1cccc(-n2ncc3c(N/N=C/c4ccncc4)ncnc32)c1
inhibition: 3.46%

Query: Give recorded inhibition. "NC(=O)c1sc(-n2cnc3cc(C(F)(F)F)ccc32)cc1OCc1ccccc1Br"
Result: -0.62%

---

# EXPERIMENTAL_TARGET: SRSF protein kinase 1 (Homo sapiens) (UniProt Q96SB4);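 further: reported values are mean percent inhibition of SRPK1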
# Sequence (Q96SB4 whole entry): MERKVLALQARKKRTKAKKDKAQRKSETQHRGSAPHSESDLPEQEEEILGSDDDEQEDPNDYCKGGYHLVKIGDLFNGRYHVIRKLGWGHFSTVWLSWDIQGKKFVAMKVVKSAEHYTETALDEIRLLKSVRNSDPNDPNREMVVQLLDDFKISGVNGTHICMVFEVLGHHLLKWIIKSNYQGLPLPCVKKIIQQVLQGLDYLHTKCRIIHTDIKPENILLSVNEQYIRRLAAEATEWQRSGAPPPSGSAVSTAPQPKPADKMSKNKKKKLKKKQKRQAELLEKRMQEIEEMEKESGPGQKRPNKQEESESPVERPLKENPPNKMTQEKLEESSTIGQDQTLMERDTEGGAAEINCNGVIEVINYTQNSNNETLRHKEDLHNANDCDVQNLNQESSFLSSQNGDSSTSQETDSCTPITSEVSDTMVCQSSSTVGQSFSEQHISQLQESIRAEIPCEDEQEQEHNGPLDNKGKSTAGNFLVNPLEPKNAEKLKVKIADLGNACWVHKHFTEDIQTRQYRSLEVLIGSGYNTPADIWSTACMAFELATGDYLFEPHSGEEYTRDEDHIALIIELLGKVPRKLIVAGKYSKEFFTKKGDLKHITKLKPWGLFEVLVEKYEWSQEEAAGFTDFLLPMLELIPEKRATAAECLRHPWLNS
# CONDITION_CONTEXT: at 1 µM
PARAMETER_MEASURED: inhibition (%)
One number for each entry, in %.

Illustrative cases are given below, each with its answer.
STRUCTURE_SMILES_STRING: COc1cccc(-n2ncc3c(N/N=C/c4ccncc4)ncnc32)c1
UNIT_SPEC: %
inhibition: 4.65
--
STRUCTURE_SMILES_STRING: COc1cc(C=NNc2ncnc3c2cnn3Cc2ccccc2)ccc1O
UNIT_SPEC: %
inhibition: 0.29
--
STRUCTURE_SMILES_STRING: Nc1nonc1-c1nc2cnccc2n1C1CCCCC1
UNIT_SPEC: %
inhibition: -0.52

Consider the following items and state reported inhibition for each.
1. CCn1c(-c2nonc2N)nc2c(C#CCN)ncc(OCCCN)c21
2. NS(=O)(=O)c1ccc(-c2ccc3c(NC(=O)C4CC4)n[nH]c3c2)cc1
3. NC(=O)c1sc(-n2cnc3cc(C(F)(F)F)ccc32)cc1OCc1ccccc1Br
4. Fc1ccc(-c2ncn(C3CCNCC3)c2-c2ccnc(Oc3ccccc3)n2)cc1
5. CCn1c(-c2nonc2N)nc2c(C#CC(C)(C)O)nc(O[C@@H](CN)c3ccccc3)cc21

Result:
[7.14, -2.21, -4.1, -1.61, -3.25]

---

# EXPERIMENTAL_TARGET: RAC-beta serine/threonine-protein kinase (Homo sapiens) (UniProt P31751)
# Sequence (P31751 whole entry): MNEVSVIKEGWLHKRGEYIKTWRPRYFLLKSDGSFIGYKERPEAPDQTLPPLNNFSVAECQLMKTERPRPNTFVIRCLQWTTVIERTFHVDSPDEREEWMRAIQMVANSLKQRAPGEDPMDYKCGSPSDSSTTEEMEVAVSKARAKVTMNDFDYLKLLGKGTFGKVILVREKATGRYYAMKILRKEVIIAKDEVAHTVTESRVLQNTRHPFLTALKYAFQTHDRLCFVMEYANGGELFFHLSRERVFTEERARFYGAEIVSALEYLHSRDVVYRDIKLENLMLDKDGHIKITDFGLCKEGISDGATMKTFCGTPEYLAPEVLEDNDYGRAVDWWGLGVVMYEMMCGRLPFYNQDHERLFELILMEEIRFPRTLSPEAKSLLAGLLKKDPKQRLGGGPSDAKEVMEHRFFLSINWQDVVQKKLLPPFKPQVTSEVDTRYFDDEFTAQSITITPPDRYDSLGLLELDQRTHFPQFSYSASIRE
# CONDITION_CONTEXT: at 1 µM
# Description: GSK_PKIS: AKT2 mean inhibition at 1 uM [Nanosyn]
Provide the reported inhibition of each item.

STRUCTURE_SMILES_STRING: Cc1cc(-c2ccco2)cc(C)c1/C=C/c1cncc(-c2nn[nH]n2)c1
inhibition: 0.09%

STRUCTURE_SMILES_STRING: COc1cccc(COc2cc(-n3cnc4ccccc43)sc2C(N)=O)c1
inhibition: 2.81%

STRUCTURE_SMILES_STRING: NS(=O)(=O)c1ccc(N/C=C2\C(=O)Nc3ccc4ncsc4c32)cc1
inhibition: 2.38%

STRUCTURE_SMILES_STRING: NC(=O)c1sc(-n2cnc3cc(C(F)(F)F)ccc32)cc1OCc1ccccc1Br
inhibition: 0.47%

Now look at this entry.
Query: Param request: inhibition | system RAC-beta serine/threonine-protein kinase (Homo sapiens) (UniProt P31751) | item "CCn1c(-c2nonc2N)nc2c(C#CCN)ncc(OCCCN)c21"
Result: 12.8%

Where do the numbers come from? From ChEMBL document CHEMBL1961873.
